The measurements presented in this section are drawn from PubChem BioAssay (Tox21).

Assay: qHTS assay to identify small molecule agonists of H2AX (AID 1224845)
Conditions: CHO-K1 phospho-H2AX Ser139 HTRF, 3 h; series mostly up to 154 µM
Results filed as inconclusive are left out. The source made the active and inactive calls. Calls follow the shape of the dose curve; as a rule, active = well fitted activation curve with a large enough effect in the signal ratio in the repeat runs (not every such curve was filed as active); inconclusive = weak or mixed curves; inactive = flat fitted curve, though single readings scatter; the % refers to the signal ratio.
Outcome codes: class 1 for active, class 0 for inactive

Compound	Assigned label
CC[N+]1(CCOC(=O)C(O)(c2ccccc2)c2ccccc2)CCCCC1	class 0
CCCC[N+]1(C)[C@@H]2CC(OC(=O)[C@H](CO)c3ccccc3)C[C@H]1[C@@H]1O[C@@H]12 (stereo partly drawn)	class 0
O=S(=O)(c1ccccc1)c1ccccc1	class 0
O=C(O)C(Cl)(Cl)Br	class 0
O=C1CC[C@@]2(O)[C@H]3Cc4ccc(O)c5c4[C@@]2(CCN3CC2CC2)[C@H]1O5	class 0
CCCC[N+](CCCC)(CCCC)CCCC	class 0
CCOC(=O)c1cn2nc(OP(=S)(OCC)OCC)cc2nc1C	class 0
NP(N)(=O)NC(=O)c1ccc(F)cc1	class 0
COC1=CC(=O)O[C@@H](/C=C/c2ccc3c(c2)OCO3)C1	class 0
Clc1ccccc1	class 0
CC(CC(C(N)=O)(c1ccccc1)c1ccccc1)N(C)C (stereo not drawn)	class 0
C[N+]1(CCF)[C@@H]2CC[C@H]1CC(OC(=O)C(O)(c1ccccc1)c1ccccc1)C2 (stereo partly drawn)	class 0
COc1cc(CC(C)N)c(OC)cc1Br (stereo not drawn)	class 0
O=S(=O)(Cl)Cl	class 0
CCOP(=S)(S)OCC	class 0
Cc1nc(N(C)C)nc(OC(=O)N(C)C)c1C	class 0
CCCCC(CC)CO[N+](=O)[O-] (stereo not drawn)	class 0
C[CH2][Hg][S]c1ccccc1C(=O)O	class 1
COC1CC(=C(c2cccs2)c2cccs2)C[N+](C)(C)C1 (stereo not drawn)	class 0
CCOC(=O)c1cncn1C(C)c1ccccc1 (stereo not drawn)	class 0
CC(C)[C@@H](C(=O)O[C@@H](C#N)c1cccc(Oc2ccccc2)c1)c1ccc(Cl)cc1	class 0
CC(C)C1(C)N=C(c2ncccc2C(=O)O)NC1=O (stereo not drawn)	class 0
CCOC(=O)NC(O)C(Cl)(Cl)Cl (stereo not drawn)	class 0
O=C(O)C(O)C(O)C(=O)O (stereo not drawn)	class 0
C[N+](C)(C)CC1CO1 (stereo not drawn)	class 0
O=C(Cl)OCCOCCOC(=O)Cl	class 0
Cc1ccc2c(C)cccc2c1	class 0
Clc1ccc2ccccc2c1	class 0
O=C(O)c1cc(I)cc(I)c1I	class 0
COc1ccc2c(c1OC)C(=O)O[C@H]2[C@@H]1c2cc3c(cc2CCN1C)OCO3	class 0
CC(C)CCCCCCCOC(=O)c1ccccc1C(=O)OCCCCCCCC(C)C	class 0
O=C=NC1CCCCC1	class 0
C1CCNCC1	class 0
C[C@]12CC[C@H]3[C@@H](CCC4=CC(=O)CC[C@@H]43)[C@@H]1CC[C@@H]2OC(=O)CCc1ccccc1	class 0
CCC1(CCC(C)C)C(=O)NC(=O)NC1=O	class 0
O=[N+]([O-])O[C@H]1CO[C@H]2[C@@H]1OC[C@H]2O[N+](=O)[O-]	class 0
COc1cc(CC#N)cc(OC)c1OC	class 0
CC(Cc1ccccc1)NCc1ccccc1Cl (stereo not drawn)	class 0
CCCCCCCCCCCCCCCl	class 0
CN1CC[C@]23c4c5ccc(O)c4O[C@H]2[C@@H](O)C=C[C@H]3[C@H]1C5	class 0
CC(C)OC(=O)Cc1ccccc1	class 0
CCCCC(CC)COC(=O)c1c(Br)c(Br)c(Br)c(Br)c1C(=O)OCC(CC)CCCC (stereo not drawn)	class 0
O=C(CCl)CCl	class 1

* * *

Target: Cytochrome P450 2C9 (Homo sapiens) (UniProt P11712)
Sequence (P11712 whole entry, looked up): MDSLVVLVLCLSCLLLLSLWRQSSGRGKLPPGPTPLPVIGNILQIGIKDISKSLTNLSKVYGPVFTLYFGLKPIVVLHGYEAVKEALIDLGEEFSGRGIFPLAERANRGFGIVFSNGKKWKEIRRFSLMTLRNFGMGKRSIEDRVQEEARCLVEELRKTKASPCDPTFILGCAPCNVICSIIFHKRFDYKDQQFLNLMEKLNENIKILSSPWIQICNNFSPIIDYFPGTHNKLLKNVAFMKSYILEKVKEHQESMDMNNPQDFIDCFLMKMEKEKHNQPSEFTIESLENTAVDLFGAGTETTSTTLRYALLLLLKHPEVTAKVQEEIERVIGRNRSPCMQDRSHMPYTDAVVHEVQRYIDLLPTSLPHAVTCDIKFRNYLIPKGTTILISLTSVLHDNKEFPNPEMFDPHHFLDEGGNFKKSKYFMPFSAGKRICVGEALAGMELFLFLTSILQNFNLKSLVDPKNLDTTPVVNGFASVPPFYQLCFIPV
Assay: Cytochrome P450 Family 2 Subfamily C Member 9 (CYP2C9) small molecule antagonists: luciferase reporter qHTS assay (AID 1671198); also: nearly all actives have a fitted effect of over 50% in size; also: potency is read from the fitted curve at half-maximal effect
Conditions: P450-Glo CYP2C9 enzyme assay, luciferin luminescence; series mostly up to 115 µM
Text: U.S. Tox21 Program National Center for Advancing Translational Sciences [NCATS] U.S. Environmental Protection Agency [EPA] National Institutes of Environmental Health Sciences [NIEHS] National Toxicology Program [NTP] U.S. Food and Drug Administration [FDA] […] The luciferin products formed are detected with a luciferin detection reagent, and the amount of light produced is proportional to CYP activity. […]
Records with an inconclusive call do not appear. The source made the active and inactive calls. Calls come from the whole dose curve; as a rule, active = well fitted inhibition curve with a large enough effect in the repeat runs; inconclusive = weak or mixed curves; inactive = no such curve, though single readings can be large or run the other way.
Measurement type: Potency

Compound	Result
Clc1ccc2ccccc2c1	inactive
C1CCNCC1	inactive
CCc1cnc(C2=NC(C)(C(C)C)C(=O)N2)c(C(=O)O)c1 (configuration not stated)	inactive
O=S(=O)(c1ccccc1)c1ccccc1	inactive
Cc1cccc(C)c1NC1=NCCCS1	inactive
CN[C@@H](C)[C@H](O)c1ccccc1	inactive
N#CC(C#N)=Cc1ccc(O)c(O)c1	17.4 µM (active)
COC1=CC(=O)O[C@@H](/C=C/c2ccc3c(c2)OCO3)C1	2.71 µM (active)
CCCCC#N	inactive
O=[N+]([O-])c1cc(Cl)c(Cl)cc1Cl	inactive
CCC(=O)O[C@@H]1C=C2CCC3C(CCC4(C)C3CC[C@@H]4OC(=O)CC)C2CC1 (some centres not stated)	15.5 µM (active)
CCOC(=O)NC(O)C(Cl)(Cl)Cl (configuration not stated)	inactive
O=C=NC1CCCCC1	inactive
CC1(C)CC(=O)CC(C)(C)N1[O]	inactive
CCC1(C2=NCCN2)Cc2ccccc2O1 (configuration not stated)	inactive
CCCBr	inactive
C#CC(O)(C=CCl)CC (configuration not stated)	inactive

* * *

Assay: qHTS assay to identify small molecule antagonists of the estrogen receptor alpha (ER-alpha) signaling pathway - cell viability counter screen (AID 743074);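 also: HEK293 cells carrying ER-alpha-UAS-bla reporter stimulated with 17beta-estradiol; nearly all actives have a fitted effect of over 45% in size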
Conditions: ERalpha-bla HEK293 viability, CellTiter-Glo luminescence, 18 h; series mostly up to 69.4 µM
Inconclusive results are not listed. Activity calls are given as the source filed them. Calls follow the shape of the full dose curve.
Classes used: active, inactive

Molecule	Assigned label
CCCC[N+](CCCC)(CCCC)CCCC	inactive
CN(C)C(=O)Nc1cccc(OC(=O)NC(C)(C)C)c1	inactive
COP(=O)(OC)OC(Br)C(Cl)(Cl)Br (stereo not given)	inactive
CCCCC#N	inactive
O=C1NC(=O)C(=O)C(=O)N1	inactive
SCc1ccccc1	inactive
Clc1ccc(Cl)c(Cl)c1	inactive
N#CC(C#N)=C(C#N)C#N	inactive
C=CC(C)(CCC=C(C)C)OC(=O)c1ccccc1N (stereo not given)	inactive
CCOP(=O)(SC(C)CC)N1CCSC1=O (stereo not given)	inactive
O=C(O)C(F)(F)C(F)(F)C(F)(F)C(F)(F)C(F)(F)F	inactive
COc1ccc(C(=O)c2c(C)n(CCN3CCOCC3)c3ccccc23)cc1	inactive
C=CCOCC1CO1 (stereo not given)	inactive
CC(Oc1cc(Cl)c(Cl)cc1Cl)C(=O)O (stereo not given)	inactive
NNCCO	inactive
COC1CC(=C(c2cccs2)c2cccs2)C[N+](C)(C)C1 (stereo not given)	inactive
NC(=S)c1c(Cl)cccc1Cl	inactive
COc1cc(CC(C)N)c(OC)cc1Br (stereo not given)	inactive
C=C(C)C(=O)OCCCCOC(=O)C(=C)C	inactive
CCOP(=S)(OCC)Oc1ccc(S(C)=O)cc1 (stereo not given)	inactive
CCOC(=O)c1cn2nc(OP(=S)(OCC)OCC)cc2nc1C	inactive
[Cl-].[Cl-].[Hg+2]	active
Nc1cc(Cl)cc(C(=O)O)c1Cl	inactive
CCCCCCCCCCCCN(C)C	inactive
CC(Cl)C(=O)O (stereo not given)	inactive
CC(C)(C)OOC(C)(C)CCC(C)(C)OOC(C)(C)C	inactive
C=CC(=O)OCC	inactive
O=S(=O)(Cl)Cl	inactive
CCCN(CCOc1c(Cl)cc(Cl)cc1Cl)C(=O)n1ccnc1	inactive
O=[N+]([O-])O[C@H]1CO[C@H]2[C@@H]1OC[C@H]2O[N+](=O)[O-]	inactive

* * *

Experiment: Caspase-3/7 induction in CHO-K1 cells by small molecules, qHTS cell viability counter screen (AID 1346979); also: nearly all actives have a fitted effect of over 35% in size
Conditions: CellTiter-Fluor fluorescence, 17 h; series mostly up to 92.4 µM
Results filed as inconclusive are left out. Active and inactive are the calls of the source. Calls follow the shape of the dose curve; as a rule, active = well fitted cell-killing curve with a large enough effect in the repeat runs; inconclusive = weak or mixed curves, or effect the other way; inactive = no such curve, though single readings can be large or run the other way.
Outcome codes: 1 (yes) (active), 0 (no) (inactive)

Molecule	Assigned label
CC(C)(C)CC(C)(C)c1ccc(O)cc1	1 (yes)
CC(Cl)C(=O)O (centres undefined)	0 (no)
C[N+]1(CCF)[C@@H]2CC[C@H]1CC(OC(=O)C(O)(c1ccccc1)c1ccccc1)C2 (some centres undefined)	0 (no)
C#CC(O)(C=CCl)CC (centres undefined)	0 (no)
O=[N+]([O-])c1cc(Cl)c(Cl)cc1Cl	0 (no)
CCCC[N+](CCCC)(CCCC)CCCC	0 (no)
CCCCC(CC)COC(=O)c1c(Br)c(Br)c(Br)c(Br)c1C(=O)OCC(CC)CCCC (centres undefined)	0 (no)
CCCC[N+]1(C)[C@@H]2CC(OC(=O)[C@H](CO)c3ccccc3)C[C@H]1[C@@H]1O[C@@H]12 (some centres undefined)	0 (no)
Cc1ccc(N)c(C)c1	0 (no)
Clc1ccc(Cl)c(Cl)c1	0 (no)
C=CCOCC1CO1 (centres undefined)	0 (no)
C=CCSSCC=C	0 (no)
Nc1ccccc1C(=O)OCC(O)CO (centres undefined)	0 (no)
O=P(OCC(Br)CBr)(OCC(Br)CBr)OCC(Br)CBr (centres undefined)	1 (yes)
